experiment: Human HepG2 cell viability assay in 384 well format; type: toxicity, cell-based; design: dose 125 nL, time 70.5 hour; concentration not given beside the values; details: HepG2 cells, read-out: Inhibition
recordedEndpoint: cytotoxicity at 70.5 h (%)
# unit: % | format: bare number

Just so you know, measured cytotoxicity at 70.5 h for "Cc1nc(CN2CCO[C@@H]3CN(C(=O)CC4CC4)CC[C@@H]3C2)cs1" came out at -13.3

Just so you know, measured cytotoxicity at 70.5 h for O=C(C1CCOC1)N1C[C@H]2CN(Cc3ccccn3)C[C@H]2C1 (stereo partly specified) came out at -18

Just so you know, measured cytotoxicity at 70.5 h for "Cc1cc(C(=O)N[C@H](C)c2onc(-c3cccnc3)c2C(=O)O)c(C)o1" came out at -2.03

Just so you know, measured cytotoxicity at 70.5 h for "Cc1cnccc1NCCNC1CCN(CC(C)C)CC1" came out at 2.02

Just so you know, measured cytotoxicity at 70.5 h for "Cc1occc1C(=O)N1CC[C@H]2C[C@@H](c3nnc(C4CC4)o3)O[C@@H]2C1" came out at -12

Just so you know, measured cytotoxicity at 70.5 h for NCC(c1ccc(Cl)cc1)N1CCc2sccc2C1 (stereo unspecified) came out at 7.32
